Assay: yeast display, Sf9 membrane polyspecificity reagent, FACS + sequencing; frameworks hold sequencing errors
Outcome measure: polyreactivity (PSR sort gate)

Answered cases to consult:
[
  {
    "Construct sequence": "QVQLVESGGGLVQAGGSLRLSCAASGLTFQGYAMGWYRQAPGKERELVAAISGSGGSTYYADSVKGRFTISRDNAKNTVYLQMNSLKPEDTAVYYCAADDSYYGIDYGYWGQGTQVTVSS",
    "polyreactivity (PSR sort gate)": "low polyreactivity"
  },
  {
    "Construct sequence": "QVQLVESGGGLVQAGGSLRLSCAASGFTFIRYAMGWYRQAPGKEREFVAAISWRVGITYYADSVKGRFTMSRDNAKNTVYLQMNSLKPEDTAVYYCARDYRNPPFAYEYWGQGTQVTVSS",
    "polyreactivity (PSR sort gate)": "low polyreactivity"
  },
  {
    "Construct sequence": "QVQLVESGGGLVQAGGSLRLSCAASGRTFGRYALGWYRQAPGKERELVATITSGGSTNYADSVKGRFTISRDNAKNTVYLQMNSLKPEDTAVYYCAAEFSPSRWAYSEGALRYNYWGQGTQVTVSS",
    "polyreactivity (PSR sort gate)": "low polyreactivity"
  },
  {
    "Construct sequence": "QVQHVESGGGLVQAGGSLRLICAASGLTSYYAMGSYRQAPGKEREIVAAIDGSDGNTYYADSVKGRYTISRDNAKNTVYLQMNSLKPEYTAVYYCNAETVLYWWSWENDYWGQGTQVTVSL",
    "polyreactivity (PSR sort gate)": "high polyreactivity"
  },
  {
    "Construct sequence": "QVQLVESGGGLVQAGGSLRLSCAASGIIFSYNAMGWYRQAPGKERELVAAITSGGITNYADSVKGRFTISRDNAKNTVYLQMNSLKPEDTAVYYCAAEVWRYYRRDYWGQGTQVTVSS",
    "polyreactivity (PSR sort gate)": "low polyreactivity"
  }
]

Endpoint output: polyreactivity (PSR sort gate) of QFQLVESGGGLVQAGGSLRLSCAASGSIFSYYAMGWYRQAPGKERELVAGITWSGGRTYYADSVKGRFTISRDNAKNTVYLQMNSLKPEDTAVYYCAAAVKRALDYWGQGTQVTVSS . Value? high polyreactivity

Further, for QVQLVESGGGLVQAGGSRRLSCAASGRTLGHNAMGWYRQAPGKERELVAAITSRGGTTYADSVKGRFTISRDNAKNTVYLQMNSLTPEDTAVYYCAARGYAYSRYYFWGQGTQVTVSS ? high polyreactivity

Further, for QVQLVESGGRLVQAGGSLRLSCAASGSIFSGYTMGWYRQAPGKERELVAAISSDGSTTYADSVKGRFTISRDNAKNTVYLQLNSLKPEDSAVYYSAAYPYWDGSYGGYDYWGQGTQVTVSS ? low polyreactivity
